Provide the recorded pIC50 for the entries that follow.
- system-under-test: PDE2 (Bos taurus)
- Construct: PDE2 was prepared from bovine endothelial cells by the same methods; endogenous in cells
- Sequence (P14099 whole entry): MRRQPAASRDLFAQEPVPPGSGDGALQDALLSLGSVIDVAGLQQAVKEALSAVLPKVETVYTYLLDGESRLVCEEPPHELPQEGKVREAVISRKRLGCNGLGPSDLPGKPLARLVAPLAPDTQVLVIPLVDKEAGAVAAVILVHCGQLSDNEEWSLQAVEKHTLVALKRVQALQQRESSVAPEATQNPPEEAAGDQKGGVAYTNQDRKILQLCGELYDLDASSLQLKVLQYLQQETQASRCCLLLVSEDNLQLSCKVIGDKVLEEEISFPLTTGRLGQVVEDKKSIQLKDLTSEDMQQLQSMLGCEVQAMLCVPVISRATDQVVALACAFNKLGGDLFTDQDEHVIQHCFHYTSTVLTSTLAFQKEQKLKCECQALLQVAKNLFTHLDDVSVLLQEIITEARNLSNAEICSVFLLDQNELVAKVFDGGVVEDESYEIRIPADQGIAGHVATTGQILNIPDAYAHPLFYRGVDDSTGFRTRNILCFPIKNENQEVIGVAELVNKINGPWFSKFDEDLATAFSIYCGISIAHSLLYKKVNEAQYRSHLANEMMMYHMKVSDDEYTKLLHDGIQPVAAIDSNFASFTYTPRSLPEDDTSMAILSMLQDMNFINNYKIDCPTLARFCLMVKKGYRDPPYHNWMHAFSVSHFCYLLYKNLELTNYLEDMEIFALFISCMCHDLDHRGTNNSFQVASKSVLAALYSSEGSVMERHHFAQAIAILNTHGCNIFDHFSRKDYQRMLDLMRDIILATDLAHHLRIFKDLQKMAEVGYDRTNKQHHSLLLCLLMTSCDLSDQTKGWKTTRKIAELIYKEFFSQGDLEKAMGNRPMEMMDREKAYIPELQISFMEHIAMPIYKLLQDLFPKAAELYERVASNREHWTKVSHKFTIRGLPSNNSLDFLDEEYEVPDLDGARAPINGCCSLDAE
- assay-comment: Selectivity: inhibition of PDE2, radioenzymatic phosphodiesterase assay
- condition-parameters: Table 4 Selectivity
# pIC50 is unitless: minus log10 of the molar concentration; print number only

Q) Can you share its pIC50? I mean this compound: COc1cc2c(cc1OC)C(c1ccc(-c3ccco3)cc1)=NN(C)C(=O)C2 [IIIav]
A) 4.72

Q) Can you share its pIC50? I mean this compound: COc1cc2c(cc1OC)C(c1cc3ccccc3s1)=NN(C)C(=O)C2 [IIIab]
A) 4.80

---

- Tested on: PDE4
- assay-comment: Inhibition of PDE4, radioenzymatic phosphodiesterase assay
- Format: biochemical, bovine
- condition-parameters: Table 2, formula (XXII); compound at 10 μM
PDE4 percentage inhibition at 10 μM below 10% gives rule not met; PDE4 percentage inhibition at 10 μM at or above it gives rule met.

Q) Quick check: does COc1cc2c(cc1OC)C(c1ccccc1)=NC(C)C(=O)N2 (stereo not drawn) have PDE4 percentage inhibition at 10 μM greater than or equal to 10%?
A) rule met

Q) Quick check: does O=C1CN=C(c2ccccc2)c2cc3c(cc2N1)OCCO3 have PDE4 percentage inhibition at 10 μM greater than or equal to 10%?
A) rule met

Q) Quick check: does COc1cc2c(cc1OC)C(c1ccccc1)=NC(Cc1ccccc1)C(=O)N2 (stereo not drawn) have PDE4 percentage inhibition at 10 μM greater than or equal to 10%?
A) rule met

Q) Quick check: does COc1cc2c(cc1OC)C(c1ccccc1)=N[C@@H](CCCCNC(C)=O)C(=O)N2 have PDE4 percentage inhibition at 10 μM greater than or equal to 10%?
A) rule not met

Q) Quick check: does COc1ccc2c(c1)C(c1ccccc1)=NCC(=O)N2 have PDE4 percentage inhibition at 10 μM greater than or equal to 10%?
A) rule met

Q) Quick check: does COc1cc2c(cc1OC)C(c1ccccc1)=NC(CCSC)C(=O)N2 (stereo not drawn) have PDE4 percentage inhibition at 10 μM greater than or equal to 10%?
A) rule met

Q) Quick check: does COc1ccc2c(c1)NC(=O)CN=C2c1ccccc1 have PDE4 percentage inhibition at 10 μM greater than or equal to 10%?
A) rule met

Q) Quick check: does COc1cc2c(cc1OC)C(c1ccccc1)=N[C@@H](CCCCN)C(=O)N2 have PDE4 percentage inhibition at 10 μM greater than or equal to 10%?
A) rule not met

Q) Quick check: does COc1cc2c(cc1OC)C(c1ccccc1)=N[C@@H](CCCCNC(=N)N)C(=O)N2.O=C(O)C(F)(F)F.O=C(O)C(F)(F)F have PDE4 percentage inhibition at 10 μM greater than or equal to 10%?
A) rule met

Q) Quick check: does COc1cc2c(cc1OC)C(c1ccccc1Br)=NCC(=O)N2 have PDE4 percentage inhibition at 10 μM greater than or equal to 10%?
A) rule met

Q) Quick check: does COc1cc2c(cc1OC)C(c1ccccc1)=NC(Cc1c[nH]cn1)C(=O)N2 (stereo not drawn) have PDE4 percentage inhibition at 10 μM greater than or equal to 10%?
A) rule met

Q) Quick check: does CCCCN(Cc1ccccc1)C(=O)OC1N=C(c2ccccc2)c2cc(OC)c(OC)cc2NC1=O (stereo not drawn) have PDE4 percentage inhibition at 10 μM greater than or equal to 10%?
A) rule met

Q) Quick check: does COc1cc2c(cc1OC)C(c1ccccc1)=NC(CC(C)C)C(=O)N2 (stereo not drawn) have PDE4 percentage inhibition at 10 μM greater than or equal to 10%?
A) rule met
